Tested on: HCT116 cell line (colorectal cancer)
Test: Anti-proliferative activity assay (WST-8, 4 days)
Format: cell-based
Details: Homo sapiens, HCT-116, 96 h; in vitro growth of HCT116 cells, 4 days incubation, WST-8 readout
Value Type: IC50 (ng/mL)

Compound: CN(C)CCNc1nc2cc(O)ccc2c2c1C(=O)c1cnccc1-2
IC50, ng/mL: 0.35

Compound: Cc1c(O)ccc2c3c(c(NCCN(C)C)nc12)C(=O)c1ccncc1-3
IC50, ng/mL: 3.9

Compound: CN(C)CCNc1nc2cc(O)ccc2c2c1C(=O)c1ccccc1-2 [Reference compound, reference compound]
IC50, ng/mL: 12

(P) Cc1cc2c(cn1)-c1c(c(NCCN(C)C)nc3cc(O)ccc13)C2=O
(Q) Cc1c(O)ccc2c3c(c(NCCN(C)C)nc12)C(=O)c1cnccc1-3
Enquiry: Returns the identifier with the smallest measured IC50 among P and Q . When you have decided, please share the label of that item.
Return: Q
